This collection of values is drawn from paper PMC5698590.

Test: Population pharmacokinetic modelling of DHA and piperaquine plasma concentrations in healthy Thai volunteers
Assay type: in vivo, human
Details: both sexes, human, plasma, oral, without primaquine; Bayesian post hoc estimates; read-out: t1/2 (terminal half-life), median (range) (converted)
parameterMeasured: half-life (days)

P. Clc1ccc2c(N3CCN(CCCN4CCN(c5ccnc6cc(Cl)ccc56)CC4)CC3)ccnc2c1 [piperaquine]
Q. C[C@H]1[C@@H](O)O[C@@H]2O[C@@]3(C)CC[C@H]4[C@H](C)CC[C@@H]1[C@@]24OO3 [dihydroartemisinin]
# input In the pair P and Q , the larger recorded half-life belongs to which? In your reply, give the label of the chosen option.
# output P

* * *

Assay: Population pharmacokinetic modelling of DHA and piperaquine plasma concentrations in healthy Thai volunteers
Format: in vivo, human
Conditions: both sexes, human, plasma, oral, without primaquine; Bayesian post hoc estimates; read-out: CMAX, median (range)
parameterMeasured: Cmax (ng/mL)

molecule	observedResult
Clc1ccc2c(N3CCN(CCCN4CCN(c5ccnc6cc(Cl)ccc56)CC4)CC3)ccnc2c1 [piperaquine]	332
C[C@H]1[C@@H](O)O[C@@H]2O[C@@]3(C)CC[C@H]4[C@H](C)CC[C@@H]1[C@@]24OO3 [dihydroartemisinin]	361

* * *

Assay: Population pharmacokinetic modelling of DHA and piperaquine plasma concentrations in healthy Thai volunteers
Assay type: in vivo, human
Details: both sexes, human, plasma, oral, three-compartment model, not carried forward; read-out: Median terminal half-life from the three-compartment model (converted)
parameterMeasured: half-life (h)
Give just the numeric value; h need not be written.

Value of half-life reported for the molecule C[C@H]1[C@@H](O)O[C@@H]2O[C@@]3(C)CC[C@H]4[C@H](C)CC[C@@H]1[C@@]24OO3 [dihydroartemisinin] is 3.11

* * *

Assay: Population pharmacokinetic modelling of DHA and piperaquine plasma concentrations in healthy Thai volunteers
Type: in vivo, human
Conditions: both sexes, human, plasma, oral, with primaquine; Bayesian post hoc estimates; read-out: t1/2 (terminal half-life), median (range) (converted)
Description: It was a descriptive pharmacokinetic-pharmacodynamic study and no formal sample size calculations were performed. […] All volunteers received primaquine alone in the first phase, followed by a washout period of 1 week. […] The exact drug administration and sampling times were recorded. […] All plasma samples were stored below -70°C and transferred on dry ice to the Department of Clinical Pharmacology, Mahidol-Oxford Tropical Medicine Research Unit (MORU), Bangkok, Thailand, for drug quantification. […]
parameterMeasured: half-life (days)

1. Clc1ccc2c(N3CCN(CCCN4CCN(c5ccnc6cc(Cl)ccc56)CC4)CC3)ccnc2c1 [piperaquine]
2. C[C@H]1[C@@H](O)O[C@@H]2O[C@@]3(C)CC[C@H]4[C@H](C)CC[C@@H]1[C@@]24OO3 [dihydroartemisinin]
# input In the pair 1 and 2 , the larger recorded half-life belongs to which? In your reply, give the label of the chosen option.
# output 1
(1: 22.1 days, 2: 0.0917 days)

* * *

Assay: Population pharmacokinetic modelling of DHA and piperaquine plasma concentrations in healthy Thai volunteers
Type: in vivo, human
Settings: both sexes, human, plasma, oral, with primaquine; Bayesian post hoc estimates; read-out: AUC (time zero to infinity), median (range)
parameterMeasured: AUC (ng·h/mL)
Give just the numeric value; ng·h/mL need not be written.

Value of AUC reported for the compound C[C@H]1[C@@H](O)O[C@@H]2O[C@@]3(C)CC[C@H]4[C@H](C)CC[C@@H]1[C@@]24OO3 [dihydroartemisinin] is 798

* * *

Test: Population pharmacokinetic modelling of DHA and piperaquine plasma concentrations in healthy Thai volunteers
Assay type: in vivo, human
Conditions: both sexes, human, plasma, oral, without primaquine; Bayesian post hoc estimates; read-out: TMAX, median (range)
parameterMeasured: Tmax (h)

1. Clc1ccc2c(N3CCN(CCCN4CCN(c5ccnc6cc(Cl)ccc56)CC4)CC3)ccnc2c1
2. C[C@H]1[C@@H](O)O[C@@H]2O[C@@]3(C)CC[C@H]4[C@H](C)CC[C@@H]1[C@@]24OO3 [dihydroartemisinin]
# input In the pair 1 and 2 , the larger recorded Tmax belongs to which? In your reply, give the label of the chosen option.
# output 1
